# Test system: 991263-137-R1-J2-PDC complex spheroid viability;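 also: spheroids exposed to compounds for 7 days before readout; 100% = DMSO vehicle control viability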
# procedure_details: Anticancer human tumor 991263-137-R1-J2-PDC patient-derived colon adenocarcinoma cell line growth inhibition [POLQ]
# assay_conditions: second compound 0.316 µM; first compound 0.1 µM; stronger effect = lower value
Parameter viability, T/C: see the listing below.
Note: unit % is implicit; provide only the numeric part.

Worked examples, 5 molecules total:
1. CC1COCCN1c1cc(C2(S(C)(=N)=O)CC2)nc(-c2ccnc3[nH]ccc23)n1 (stereo not given) + COC1C(OC(N)=O)C(O)C(Oc2ccc3c(O)c(NC(=O)c4ccc(O)c(CC=C(C)C)c4)c(=O)oc3c2C)OC1(C)C ... 106
2. COc1cc2cc(C(=O)CCC(=O)O)sc2cc1OC + COC1C(OC(N)=O)C(O)C(Oc2ccc3c(O)c(NC(=O)c4ccc(O)c(CC=C(C)C)c4)c(=O)oc3c2C)OC1(C)C ... 130
3. CCCS(=O)(=O)Nc1ccc(F)c(C(=O)c2c[nH]c3ncc(-c4ccc(Cl)cc4)cc23)c1F + Cc1cccc(N(C)C(=O)C2C(O)CCN2c2nc(C)cc(C(F)(F)F)c2C#N)c1 ... 102
4. Nc1ccn(C2OC(CO)C(O)C2(F)F)c(=O)n1 (stereo not given) + Nc1ccc(C#CCN(C(=O)Cc2ncc(C(F)(F)F)cc2C(F)(F)F)c2ccc(F)cc2)nn1 ... 74.1
5. Cn1ncnc1[C@H]1c2n[nH]c(=O)c3cc(F)cc(c23)N[C@@H]1c1ccc(F)cc1 + COC1C(OC(N)=O)C(O)C(Oc2ccc3c(O)c(NC(=O)c4ccc(O)c(CC=C(C)C)c4)c(=O)oc3c2C)OC1(C)C ... 110

viability, T/C reported for this molecule O=C(c1cc(Cc2n[nH]c(=O)c3ccccc23)ccc1F)N1CCN(C(=O)C2CC2)CC1 + COC1C(OC(N)=O)C(O)C(Oc2ccc3c(O)c(NC(=O)c4ccc(O)c(CC=C(C)C)c4)c(=O)oc3c2C)OC1(C)C : 109

Just so you know, measured viability, T/C for CNCc1ccc(-c2[nH]c3cc(F)cc4c3c2CCNC4=O)cc1 + Cc1cccc(N(C)C(=O)C2C(O)CCN2c2nc(C)cc(C(F)(F)F)c2C#N)c1 came out at 120
